# test: Water stability (conversion of prodrug to 1,3PDS)
# Format: physicochemical
# conditionNotes: deionized water, 37° C., 2 h
endpoint: Conversion to 1,3PDS (%) 2 h
Please give a number only; it is taken to be in %.

The examples below pair each entry with its known result.
COC(=O)c1ccccc1OS(=O)(=O)CCCS(=O)(=O)O ... 0.1
CC(OC(=O)NCCC(C)(C)COS(=O)(=O)CCCS(=O)(=O)OCC(C)(C)CCNC(=O)OC(C)OC(=O)C(C)C)OC(=O)C(C)C (stereo not shown) ... 0.4
CC(C)(CNC(=O)[C@@H](N)Cc1ccccc1)COS(=O)(=O)CCCS(=O)(=O)O ... 18

Continue with the compound presented below.
Query: Could you share which Conversion to 1,3PDS (%) 2 h value was measured for CC(C)(CNC(=O)[C@H](Cc1ccccc1)NC(=O)OC(C)(C)C)COS(=O)(=O)CCCS(=O)(=O)[O-].[Na+] ?
Result: 18.8
